Here the recorded inhibition at 10 µM is given for each entry.
- assayed-target: hERG (IKr current) (Homo sapiens (Human), UniProt Q12809)
- Sequence (Q12809 whole entry): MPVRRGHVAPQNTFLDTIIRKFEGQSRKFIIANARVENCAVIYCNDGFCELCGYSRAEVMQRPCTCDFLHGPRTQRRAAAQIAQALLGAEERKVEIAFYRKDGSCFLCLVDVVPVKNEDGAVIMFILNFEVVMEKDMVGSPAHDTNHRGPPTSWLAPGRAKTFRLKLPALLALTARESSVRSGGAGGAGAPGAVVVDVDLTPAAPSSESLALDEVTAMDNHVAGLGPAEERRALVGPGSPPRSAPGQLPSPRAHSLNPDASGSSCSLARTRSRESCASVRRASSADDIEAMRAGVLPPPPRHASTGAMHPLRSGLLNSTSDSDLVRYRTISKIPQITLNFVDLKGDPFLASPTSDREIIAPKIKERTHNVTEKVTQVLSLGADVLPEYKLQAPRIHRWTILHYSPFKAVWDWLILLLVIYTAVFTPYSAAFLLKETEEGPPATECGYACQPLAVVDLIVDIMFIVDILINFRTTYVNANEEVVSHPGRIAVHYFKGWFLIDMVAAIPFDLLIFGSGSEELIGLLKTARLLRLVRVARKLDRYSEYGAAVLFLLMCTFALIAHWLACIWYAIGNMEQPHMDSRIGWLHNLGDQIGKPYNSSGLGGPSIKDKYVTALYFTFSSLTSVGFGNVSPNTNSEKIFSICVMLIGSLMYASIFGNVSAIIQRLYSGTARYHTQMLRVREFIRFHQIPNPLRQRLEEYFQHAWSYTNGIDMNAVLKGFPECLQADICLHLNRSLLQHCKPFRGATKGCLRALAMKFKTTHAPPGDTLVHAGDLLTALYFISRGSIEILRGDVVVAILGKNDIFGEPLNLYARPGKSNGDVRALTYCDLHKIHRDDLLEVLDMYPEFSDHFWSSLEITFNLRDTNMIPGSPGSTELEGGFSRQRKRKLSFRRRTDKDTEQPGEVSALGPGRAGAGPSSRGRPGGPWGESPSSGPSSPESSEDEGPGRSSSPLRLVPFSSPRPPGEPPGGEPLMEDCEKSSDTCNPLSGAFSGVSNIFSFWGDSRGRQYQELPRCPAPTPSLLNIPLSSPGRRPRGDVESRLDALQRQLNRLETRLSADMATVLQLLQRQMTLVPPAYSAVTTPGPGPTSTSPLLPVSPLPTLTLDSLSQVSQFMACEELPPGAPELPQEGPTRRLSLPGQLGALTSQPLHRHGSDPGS
- measurement-protocol: hERG inhibition, patch clamp (Port-a-Patch) on HEK cells stably transfected with the hERG clone, IKr current
- Type: cell-based
- measurement-setup: human, HEK cells stably transfected with the hERG clone, pH 7.4, IKr current, 10 μM; read-out: Percent Inhibition Trial I
Write the value in % as a bare number.

> print(dat)
                                   compound  readout.value
1  O=C(c1ccncc1)C1CCCN(Cc2ccccc2)C1 (stereo not drawn)           7.16
2  O=C(c1ccc(Cl)cc1)C1CCCN(C(=O)c2ccccc2)C1 (stereo not drawn)           26.4

// next item, inhibition at 10 µM requested
*Q* Field request: inhibition at 10 µM | item: O=C(c1ncccn1)C1CCCN(Cc2ccccc2)C1 (stereo not drawn)
*A* 3.44

###

Here the recorded inhibition at 1 µM is given for each entry.
- assayed-target: hERG (IKr current) (Homo sapiens (Human))
- measurement-protocol: hERG inhibition, patch clamp (Port-a-Patch) on HEK cells stably transfected with the hERG clone, IKr current
- Type: cell-based
- measurement-setup: human, HEK cells stably transfected with the hERG clone, pH 7.4, IKr current, 1 μM; read-out: Percent Inhibition Mean (%)
- Description: HEK cells stably transfected with the hERG clone are maintained at 37±2° C. in a 5% CO2 incubator. The cells are initially revived and grown in DMEM/F12+GlutaMAX-I medium supplemented with 9% fetal bovine serum (FBS) and antibiotics (Penicillin 100 IU/mL Streptomycin 100 μg/mL) (complete medium). […] Once the stable current is attained (at least 2-5 minutes) vehicle control is added and the current measured till the stable current is achieved. […]
Write the value in % as a bare number.

Use these answered entries as a reference point.
> print(dat)
                                   compound             readout  readout.value
1  O=C(c1ncccn1)C1CCCN(Cc2ccccc2)C1 (stereo not drawn)  inhibition at 1 µM              0
2  O=C(c1ccc(Cl)cc1)C1CCCN(C(=O)c2ccccc2)C1 (stereo not drawn)  inhibition at 1 µM           13.2

// next item, inhibition at 1 µM requested
*Q* Field request: inhibition at 1 µM | item: O=C(c1ccncc1)C1CCCN(Cc2ccccc2)C1 (stereo not drawn)
*A* 2.37

###

- assayed-target: hERG (IKr current) (Homo sapiens (Human), UniProt Q12809)
- measurement-protocol: hERG inhibition, patch clamp (Port-a-Patch) on HEK cells stably transfected with the hERG clone, IKr current
- Format: cell-based
- measurement-setup: human, HEK cells stably transfected with the hERG clone, pH 7.4, IKr current, 10 μM; read-out: Percent Inhibition Mean (%)
Here the recorded inhibition at 10 µM is given for each entry.
Write the value in % as a bare number.

Use these answered entries as a reference point.
> print(dat)
                                   molecule  readout.value
1  O=C(c1ccncc1)C1CCCN(Cc2ccccc2)C1 (stereo not drawn)           10.2
2  O=C(c1ncccn1)C1CCCN(Cc2ccccc2)C1 (stereo not drawn)           1.99

*Q* Field request: inhibition at 10 µM | item: O=C(c1ccc(Cl)cc1)C1CCCN(C(=O)c2ccccc2)C1 (stereo not drawn)
*A* 23.1
